- assay-remarks: NCI Yeast Anticancer Drug Screen. Data for the sgs1 mgt1 strain (AID 161)
- measurement-context: S. cerevisiae sgs1 mgt1 strain, at 50.0 µM
This is part of a sample that, as a whole, favours compounds with a hit. Of some 79,000 tested, about 15% had one in any assay. The source made the active and inactive calls. No stated cut-off is given here; in the data, active means growth inhibition above about 70%; inactive means the rest.
Result category, one only: active, inactive

Input line: Could you check what this test reported for Cc1ccccc1N=C(N)NC#N ?
Output line: inactive

Input line: Hello, I am checking results. What call was entered for C=C(c1ccc(OC)cc1)c1cc(C(C)(C)C)c(O)c(C(C)(C)C)c1 ?
Output line: inactive

Input line: Fill in: this test's call for Cc1cccc([Si](c2ccccc2)(c2ccccc2)c2ccccc2)c1 is ___
Output line: inactive

New cases:
Input line: Hi, sorry to bother you, what did the test record for O/N=C1\CC2(N3CCOCC3)CCC1(c1ccccc1)CC2 ?
Output line: inactive

Input line: Lab log entry: O=C(c1cccc(F)c1)c1ccccc1Cc1ccccc1 — outcome as called in the assay?
Output line: inactive

Input line: Hey, what did the test say about CN=C1c2ccccc2C(=O)c2c1c(O)n(C)c2O ?
Output line: inactive

Input line: Test call for this compound, please: O=C(O)c1onc2ccccc12
Output line: inactive

Input line: Tell me the assay call for NC(N)=NS(=O)(=O)c1ccc(N2C(=O)CC3(CCCC3)C2=O)cc1 please.
Output line: inactive

Input line: Which outcome did this test record for the compound COc1ccc(CCN=C(N)CCl)cc1 ?
Output line: inactive

Input line: What is the recorded call for this compound in the test? CCCCCCCCN(CCCCCCCC)CC(O)c1ccc2c(c1)Sc1ccccc1O2 (centres undefined)
Output line: active

Input line: Which outcome was entered for the compound CCOC(=O)c1ccc(OC)c2[nH]c3c(c(=O)c12)C(=O)c1[nH]c2c(OC)ccc(C(=O)OCC)c2c(=O)c1C3=O in this test?
Output line: inactive

Input line: Write down the call the test reported for this compound. Item: C#CC[N+](CC)(CC)CC
Output line: inactive

Input line: Which outcome was entered for the compound CCC(C)NC(=O)C1C2CCC(C2)C1C(=O)NC(C)CC (centres undefined) in this test?
Output line: inactive

Input line: Record lookup: outcome of this test for Cn1c2ccccc2c2c(-c3ccccc3)cc3c(c21)C(=O)C=CC3=O ?
Output line: inactive
